Tested on: HCV 1b-BB7 subgenomic replicon
Assay: microbe, parasite or virus in culture
Type: cell-based, HCV genotype 1b
Settings: Hepatitis C virus, stable replicon, strain 1b BB7, 5% FBS + 40% human plasma; read-out: 1b BB7 5% FBS + 40% Human Plasma EC50
pEC50: −log10 of the molar value.
Rule: pEC50 of 6 or more gives t; anything lower gives f.

Study these solved cases before continuing.
CC(C)CCN(c1cc2oc(-c3ccc(F)cc3)c(-c3ncc[nH]3)c2cc1C1CC1)S(C)(=O)=O [Example 4] = t
CCC1NC(c2c(-c3ccc(F)cc3)oc3cc(N(CCC(C)C)S(C)(=O)=O)c(C4CC4)cc23)=NO1 (stereo not drawn) [Example 155] = f
CC(C)CCN(c1cc2oc(-c3ccc(F)cc3)c(-c3nccc(=O)[nH]3)c2cc1C1CC1)S(C)(=O)=O [Example 161] = f
CS(=O)(=O)Nc1cc2oc(-c3ccc(F)cc3)c(-c3ncc[nH]3)c2cc1C1CC1 [Example 1] = t
Cn1cc(-c2ncc(CN(c3ccc4c(-c5ncc[nH]5)c(-c5ccccc5)oc4c3)S(C)(=O)=O)s2)cn1 [Example 26] = f
Cc1c[nH]c(-c2c(-c3ccc(F)cc3)oc3cc(N(CCO)S(C)(=O)=O)c(C4CC4)cc23)n1 [Example 189] = t

query: Could you tell me if the measured pEC50 of CS(=O)(=O)N(CCCc1noc(=O)[nH]1)c1cc2oc(-c3ccc(F)cc3)c(-c3ncc[nH]3)c2cc1C1CC1 [Example 175] reaches 6 or more?
result: t

query: Could you tell me if the measured pEC50 of CC(C)(C)Oc1ncc(-c2ncc(CN(c3ccc4c(-c5ncc[nH]5)c(-c5ccccc5)oc4c3)S(C)(=O)=O)s2)c(OC(C)(C)C)n1 [Example 27] reaches 6 or more?
result: f

query: Could you tell me if the measured pEC50 of CC(C)(C#N)CCCCN(c1cc2oc(-c3ccc(F)cc3)c(C3=NOCCN3)c2cc1C1CC1)S(C)(=O)=O [Example 115] reaches 6 or more?
result: t

====

System: HCV 1a-H77 subgenomic replicon
Assay: microbe, parasite or virus in culture
Assay type: cell-based, HCV genotype 1a
Conditions: Hepatitis C virus, stable replicon, 5% FBS, absence of human plasma; read-out: Stable Replicon 1a H77 5% FBS EC50
test.readout: pEC50
Please keep in mind that pEC50 is minus log10 of the molar concentration; only the number is needed.

CS(=O)(=O)N(Cc1cnc(-c2cccc(CO)c2)s1)c1ccc2c(-c3ncc[nH]3)c(-c3ccccc3)oc2c1 = 6.39
CS(=O)(=O)Nc1cc2oc(-c3ccc(F)cc3)c(C3=NOCN3)c2cc1C1CC1 = 6.09
Cn1cnc2ccc(-c3ncc(CN(c4ccc5c(-c6ncc[nH]6)c(-c6ccccc6)oc5c4)S(C)(=O)=O)s3)cc21 = 6.97
CCOC(=O)CN(c1cc2oc(-c3ccc(F)cc3)c(-c3ncc[nH]3)c2cc1C1CC1)S(C)(=O)=O = 6.79

query: Return pEC50 measured with HCV 1a-H77 subgenomic replicon given this compound: `CS(=O)(=O)N(CCCc1n[nH]c(=O)o1)c1cc2oc(-c3ccc(F)cc3)c(-c3ncc[nH]3)c2cc1C1CC1`
result: 8.01

query: Return pEC50 measured with HCV 1a-H77 subgenomic replicon given this compound: `CCCCCN(c1cc2oc(-c3ccc(F)cc3)c(-c3ncc[nH]3)c2cc1C1CC1)S(C)(=O)=O`
result: 7.38

query: Return pEC50 measured with HCV 1a-H77 subgenomic replicon given this compound: `CS(=O)(=O)N(CCCCCO)c1cc2oc(-c3ccc(F)cc3)c(C3=NOCCN3)c2cc1C1CC1`
result: 8.19

query: Return pEC50 measured with HCV 1a-H77 subgenomic replicon given this compound: `Cc1ccc(C)n1-c1nc(CCCN(c2cc3oc(-c4ccc(F)cc4)c(-c4ncc[nH]4)c3cc2C2CC2)S(C)(=O)=O)cs1`
result: 7.05

query: Return pEC50 measured with HCV 1a-H77 subgenomic replicon given this compound: `CS(=O)(=O)N(CCCN1CCS(=O)(=O)CC1)c1cc2oc(-c3ccc(F)cc3)c(C3=NOCCN3)c2cc1C1CC1`
result: 7.57

query: Return pEC50 measured with HCV 1a-H77 subgenomic replicon given this compound: `CCOC(=O)CCCCN(c1cc2oc(-c3ccc(F)cc3)c(-c3ncc[nH]3)c2cc1C1CC1)S(C)(=O)=O`
result: 7.91

query: Return pEC50 measured with HCV 1a-H77 subgenomic replicon given this compound: `CCCCN(c1cc2oc(-c3ccc(F)cc3)c(-c3ncc[nH]3)c2cc1C1CC1)S(C)(=O)=O`
result: 7.48

query: Return pEC50 measured with HCV 1a-H77 subgenomic replicon given this compound: CS(=O)(=O)N(CCC1CCS(=O)(=O)C1)c1cc2oc(-c3ccc(F)cc3)c(C3=NOCCN3)c2cc1C1CC1 (stereo not drawn)
result: 7.96
